- procedure-summary: NCI Yeast Anticancer Drug Screen. Data for the bub3 strain (AID 167)
- assay-context: S. cerevisiae bub3 mutant strain, at 5.0 µM (retest, dose inferred, filed as 0.5), active compounds read high
- Experimental: Growth inhibition of yeast strains with defined genetic alterations is measured as a screen for potential anti-cancer activity. Selected strains with alterations in DNA damage repair or cell cycle control were exposed to compounds and growth inhibition was measured relative to vehicle treated controls. The strain used in this assay is bub3
This is part of a sample that, as a whole, favours compounds with a hit. Of some 79,000 tested, about 15% had one in any assay.
// criterion not met strictly below 20% in growth inhibition; criterion met otherwise

Solved entries:
{"molecule": "S=c1nc[nH]c2[nH]ccc12", "assigned-category": "criterion not met"}
{"molecule": "CCOC(=O)c1c[nH]c2cc(C(F)(F)F)ccc2c1=O", "assigned-category": "criterion met"}
{"molecule": "Nc1cc(F)c2c(c1)Cc1ccccc1-2", "assigned-category": "criterion not met"}
{"molecule": "CCCCN(C(=O)CCl)c1ccccc1", "assigned-category": "criterion not met"}
{"molecule": "C=CC(=O)OCCOc1ccc(Cl)cc1Cl", "assigned-category": "criterion not met"}
{"molecule": "COc1ccc(C2c3cc4c(cc3OC(NNC(N)=O)C2C)OCO4)cc1 (configuration not stated)", "assigned-category": "criterion not met"}
{"molecule": "O=C1CSC(=S)N1c1ccc(Cl)c(C(F)(F)F)c1", "assigned-category": "criterion not met"}
{"molecule": "c1ccc([P+](CCCCCCCC[P+](c2ccccc2)(c2ccccc2)c2ccccc2)(c2ccccc2)c2ccccc2)cc1", "assigned-category": "criterion met"}

Req: Could you verify whether the entry OCC(O)C(O)C(O)C(O)C(/C=N/Nc1ccccc1)=N/Nc1ccccc1 (configuration not stated) shows growth inhibition of no less than 20%?
Resp: criterion not met

Req: Could you verify whether the entry O=C(NCCCCCCNC(=O)n1cc(F)c(=O)[nH]c1=O)NCCCOCCOCCOCCOCCOCCOCCOCCOCCOCCOCCOCCOCCOCCOCCOCCOCCOCCOCCOCCOCCOCCCNC(=O)C(O)C(O)C(OC1OC(CO)C(O)C(O)C1O)C(O)CO (configuration not stated) shows growth inhibition of no less than 20%?
Resp: criterion not met

Req: Could you verify whether the entry O=[N+]([O-])c1c(Br)cc(Br)c2c1Nc1c(ccc(Cl)c1Cl)S2 shows growth inhibition of no less than 20%?
Resp: criterion met

Req: Could you verify whether the entry Cc1ccc(S(=O)(=O)NC2CCCCCCC2)cc1 shows growth inhibition of no less than 20%?
Resp: criterion met

---

- procedure-summary: NCI Yeast Anticancer Drug Screen. Data for the rad50 strain (AID 155);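 note: 0% = growth of vehicle-only cultures of the same strain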
- assay-context: S. cerevisiae rad50 strain growth inhibition; at 50.0 µM
Compounds without any hit were thinned out: in the full panel of roughly 79,000, 15% have a hit. Activity calls are given as the source filed them. Cut-off read from the data, not from the text of the source: active = growth inhibition above about 70%; inactive = the rest. Where a SMILES comes first, the peptide text is derived from it. [ ]: non-standard residue; d: D form. ξ: configuration not given here. ξI = CCC(C)C(N)C(=O)O
Mark one answer only. Choices: T (active), F (inactive)

Solved entries:
{"compound": "COC(=O)C(=O)C(C(=O)C(c1ccccc1)c1ccccc1)c1nc2n(c1O)/C(=N/C(=O)Nc1ccc(Cl)cc1)N=N2 (stereo unspecified)", "assigned-category": "T"}
{"compound": "Nc1nc(N)c2nc3c4ccccc4c4ccccc4c3nc2n1", "assigned-category": "F"}
{"compound": "CCC(C)C(NC(=O)CN)C(=O)O (stereo unspecified) (H-Gly-[ξI]-OH)", "assigned-category": "F"}
{"compound": "c1ccc2c(c1)CC1=C(O2)c2ccccc2OC1", "assigned-category": "F"}
{"compound": "C=C1C(=O)OC2CC(C)C3C4OC4C(O)C3(C)C(O)C12 (stereo unspecified)", "assigned-category": "F"}

Let us examine a further case.
Req: Per the assay record, what outcome was assigned to CC(=O)NC1CCC(C2CCCCC2)CC1C1CCCCC1 (stereo unspecified) ?
Resp: T

---

- procedure-summary: NCI Yeast Anticancer Drug Screen. Data for the sgs1 mgt1 strain (AID 161);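 note: 0% = growth of cultures given vehicle only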
- assay-context: S. cerevisiae sgs1 mgt1 strain, at 5.0 µM (retest, dose inferred, filed as 0.5)
The panel holds about 79,000 compounds, 15% with a hit somewhere; the sample as a whole holds those more often. Active and inactive are the calls of the source. Cut-off read from the data, not from the text of the source: active = growth inhibition above about 70%; inactive = the rest.
Mark one answer only. Choices: Yes = active, No = inactive

Req: Per the assay record, what outcome was assigned to O=c1c(Cl)c(Cl)cnn1-c1ccccc1 ?
Resp: No

Req: Per the assay record, what outcome was assigned to c1cc2c3c(cccc3c1)-c1cnccc1-2 ?
Resp: No

Req: Per the assay record, what outcome was assigned to CC(O)CN1CCN(CC(C)O)CC1.[I][Pt+2][I] (configuration not stated) ?
Resp: No

Req: Per the assay record, what outcome was assigned to CCCCCCCCCCCCc1ccc(S(=O)(=O)O)cc1.[Cu+2] ?
Resp: No

Req: Per the assay record, what outcome was assigned to Fc1ccc2nc3ccccc3nc2c1 ?
Resp: No

Req: Per the assay record, what outcome was assigned to O=[N+]([O-])c1cc2c(cc1S(=O)(=O)O)C1C(C3C2C2(Cl)C(Cl)=C(Cl)C3(Cl)C2(Cl)Cl)C2(Cl)C(Cl)=C(Cl)C1(Cl)C2(Cl)Cl (configuration not stated) ?
Resp: No

Req: Per the assay record, what outcome was assigned to CC1(O)Cc2c(O)c3c(c(O)c2CC1O)C(=O)C=CC3=O (configuration not stated) ?
Resp: No

Req: Per the assay record, what outcome was assigned to CC(C)(S)C(N)C(=O)O (configuration not stated) ?
Resp: No

Req: Per the assay record, what outcome was assigned to CCCN(CCC)C(=S)N/N=C/c1ccccn1 ?
Resp: Yes

Req: Per the assay record, what outcome was assigned to CCO/C=C1\SC(=S)N(c2cccc(O)c2)C1=O ?
Resp: No

Req: Per the assay record, what outcome was assigned to CCCCCCCCCCCC(=O)CN1CCOCC1 ?
Resp: No

Req: Per the assay record, what outcome was assigned to CC12CCCCC1C/C(=N/NC(N)=O)CC2 (configuration not stated) ?
Resp: No

---

- procedure-summary: NCI Yeast Anticancer Drug Screen. Data for the bub3 strain (AID 167)
- assay-context: S. cerevisiae bub3 mutant strain, at 50.0 µM, active compounds read high
- Method: Growth inhibition of yeast strains with defined genetic alterations is measured as a screen for potential anti-cancer activity. Selected strains with alterations in DNA damage repair or cell cycle control were exposed to compounds and growth inhibition was measured relative to vehicle treated controls. The strain used in this assay is bub3
About 79,000 compounds went through this panel and 15% of them were active in at least one assay; those are over-represented in the sample as a whole. The source made the active and inactive calls. Cut-off read from the data, not from the text of the source: active = growth inhibition above about 70%; inactive = the rest.
Each record here notes measured growth inhibition.

{"molecule": "CCC1CCCC(=O)C1 (stereo unspecified)", "observed": "99.4% (active)"}
{"molecule": "Oc1cc2c(cc1C(c1ccc3c(c1)OCO3)N1CCN(C(c3ccc4c(c3)OCO4)c3cc4c(cc3O)OCO4)CC1)OCO2 (stereo unspecified)", "observed": "54.2% (inactive)"}
{"molecule": "CCN(C(=O)C(Cl)Cl)C(Cc1ccccc1)c1ccccc1 (stereo unspecified)", "observed": "86.8% (active)"}
{"molecule": "Cc1nc2ccccc2cc1CCl", "observed": "32.9% (inactive)"}
{"molecule": "CCC(=O)OCOc1ccc(/C=C2\\CCC(CN(C)C)C2=O)cc1 (stereo unspecified)", "observed": "84.5% (active)"}

Req: # query: growth inhibition of entry CCCCCCCCCCCCCCCCOP(=O)(O)OCC(NC(C)=O)C(=O)O (stereo unspecified)
Resp: 99.5% (active)

---

Each record here notes measured growth inhibition.
- procedure-summary: NCI Yeast Anticancer Drug Screen. Data for the mlh1 rad18 strain (AID 175)
- assay-context: S. cerevisiae mlh1 rad18 strain growth inhibition; at 5.0 µM (retest, dose inferred, filed as 0.5); active compounds read high
- Description: Growth inhibition of yeast strains with defined genetic alterations is measured as a screen for potential anti-cancer activity. Selected strains with alterations in DNA damage repair or cell cycle control were exposed to compounds and growth inhibition was measured relative to vehicle treated controls. The strain used in this assay is mlh1 rad18
About 79,000 compounds went through this panel and 15% of them were active in at least one assay; those are over-represented in the sample as a whole.
Kindly provide the numeric value in % only, without the unit symbol.

{"compound": "Clc1ccc(/C=C/c2ccccn2)c(Cl)c1", "observed": 1}

Req: # query: growth inhibition of entry C[N+]1(Cc2ccc(Cl)c(Cl)c2)CCCC1C1CCCN(Cc2ccc(Cl)c(Cl)c2)C1 (stereo not given)
Resp: -2

Req: # query: growth inhibition of entry COC1/C=C\C=C(/C)C(=O)Nc2cc3nc4ccc(Br)cc4oc-3c(c2=O)CC(C)CC(OC)C(O)C(C)/C=C(\C)C1OC(N)=O (stereo not given)
Resp: 57

Req: # query: growth inhibition of entry COc1ccc(/C=C/C(=O)CCN2CCN(CCC(=O)/C=C/c3ccc(OC)cc3)CC2)cc1
Resp: -5

Req: # query: growth inhibition of entry O=C(/C=C/c1ccc(Cl)cc1)NC1C=Nc2ccc([N+](=O)[O-])cc2NC1=O (stereo not given)
Resp: 13

Req: # query: growth inhibition of entry CCN(CC)c1ccc(C(=C2C=CC(=[N+](CC)CC)C=C2)c2ccc(N(CC)CC)cc2)cc1
Resp: 97
